Where these numbers come from: patent US20120219615A1

- tested_on: TLR7 (Homo sapiens)
- Construct: expressed in transfected cells; host or cells: HEK293
- Sequence (Q9NYK1 27-1049): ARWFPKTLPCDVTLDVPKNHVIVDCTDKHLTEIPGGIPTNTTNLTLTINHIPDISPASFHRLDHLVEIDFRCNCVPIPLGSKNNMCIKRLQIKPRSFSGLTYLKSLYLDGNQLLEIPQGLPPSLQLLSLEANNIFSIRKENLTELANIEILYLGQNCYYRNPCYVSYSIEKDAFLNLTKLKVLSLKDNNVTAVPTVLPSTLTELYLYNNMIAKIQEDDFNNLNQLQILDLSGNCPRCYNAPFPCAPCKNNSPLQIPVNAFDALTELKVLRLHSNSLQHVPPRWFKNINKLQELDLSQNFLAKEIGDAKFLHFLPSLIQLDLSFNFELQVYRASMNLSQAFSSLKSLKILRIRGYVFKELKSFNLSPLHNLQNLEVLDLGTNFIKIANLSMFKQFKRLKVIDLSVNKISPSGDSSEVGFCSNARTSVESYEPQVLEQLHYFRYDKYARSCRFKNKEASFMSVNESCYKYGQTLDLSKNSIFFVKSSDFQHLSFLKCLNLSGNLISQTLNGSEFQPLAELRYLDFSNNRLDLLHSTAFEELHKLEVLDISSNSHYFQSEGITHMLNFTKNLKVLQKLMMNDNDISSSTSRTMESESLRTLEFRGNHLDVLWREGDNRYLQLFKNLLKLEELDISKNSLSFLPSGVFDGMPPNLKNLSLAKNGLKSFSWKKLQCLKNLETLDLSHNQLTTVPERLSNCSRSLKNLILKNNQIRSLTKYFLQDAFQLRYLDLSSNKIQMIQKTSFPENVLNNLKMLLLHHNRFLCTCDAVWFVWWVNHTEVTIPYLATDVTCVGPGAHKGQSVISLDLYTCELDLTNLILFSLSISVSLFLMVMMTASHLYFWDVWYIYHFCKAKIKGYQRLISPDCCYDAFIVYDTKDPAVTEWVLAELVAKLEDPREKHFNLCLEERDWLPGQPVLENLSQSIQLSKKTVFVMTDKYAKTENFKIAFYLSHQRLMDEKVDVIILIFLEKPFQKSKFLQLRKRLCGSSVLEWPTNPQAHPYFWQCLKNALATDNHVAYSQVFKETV
- assay: IFNα production in PBMCs (marker of TLR7 activation)
- Assay type: cell-based
- recorded_conditions: PBMCs from 15 healthy donors
reported_endpoint: EC50

- CCCN(CCC)C(=O)C1=Cc2ccc(-c3ccc(C(=O)N4CCCC4)cc3)cc2N=C(N)C1 [VTX-2337]: > 3.33 µM

----------
- assay: Phase I clinical study: pharmacokinetics after subcutaneous administration
- Format: in vivo
- recorded_conditions: plasma, sc; human, first dose, 0.4 mg/m^2 (~0.011 mg/kg)
reported_endpoint: AUC(0-inf)

- CCCN(CCC)C(=O)C1=Cc2ccc(-c3ccc(C(=O)N4CCCC4)cc3)cc2N=C(N)C1: 10.9 ng·h/mL

----------
- assay: Phase I clinical study: pharmacokinetics after subcutaneous administration
- Assay type: in vivo
- recorded_conditions: plasma, sc; human, first dose, 0.2 mg/m^2 (~0.0054 mg/kg)
reported_endpoint: Cmax (ng/mL)

* CCCN(CCC)C(=O)C1=Cc2ccc(-c3ccc(C(=O)N4CCCC4)cc3)cc2N=C(N)C1 | 1.97

----------
- assay: Phase I clinical study: pharmacokinetics after subcutaneous administration
- Format: in vivo
- recorded_conditions: plasma, sc; human, first dose, 2.0 mg/m^2 (~0.054 mg/kg)
reported_endpoint: Cmax

* CCCN(CCC)C(=O)C1=Cc2ccc(-c3ccc(C(=O)N4CCCC4)cc3)cc2N=C(N)C1 | 14.6 ng/mL

----------
- assay: Phase I clinical study: pharmacokinetics after subcutaneous administration
- Format: in vivo
- recorded_conditions: plasma, sc; human, s.c., first dose, across cohorts 0.1-3.9 mg/m^2; read-out: mean Tmax
reported_endpoint: Tmax

- CCCN(CCC)C(=O)C1=Cc2ccc(-c3ccc(C(=O)N4CCCC4)cc3)cc2N=C(N)C1 [VTX-2337]: 30 to 48 min

----------
- assay: Phase I clinical study: pharmacokinetics after subcutaneous administration
- Format: in vivo
- recorded_conditions: plasma, sc; human, s.c., first dose, 2.0 mg/m^2 (~0.054 mg/kg); read-out: T1/2 (converted)
reported_endpoint: half-life (h)

* CCCN(CCC)C(=O)C1=Cc2ccc(-c3ccc(C(=O)N4CCCC4)cc3)cc2N=C(N)C1 | 6.7

----------
- assay: Phase I clinical study: pharmacokinetics after subcutaneous administration
- Format: in vivo
- recorded_conditions: plasma, sc; human, s.c., first dose, 0.8 mg/m^2 (~0.022 mg/kg); read-out: T1/2 (converted)
reported_endpoint: half-life (h)

• CCCN(CCC)C(=O)C1=Cc2ccc(-c3ccc(C(=O)N4CCCC4)cc3)cc2N=C(N)C1 = 5.3

----------
- assay: Phase I clinical study: pharmacokinetics after subcutaneous administration
- Assay type: in vivo
- recorded_conditions: plasma, sc; human, first dose, 0.8 mg/m^2 (~0.022 mg/kg)
- Description: Study Procedures: VTX-2337 was administered weekly via subcutaneous injection on Days 1, 8, and 15 of a 28-day dosing cycle for two cycles. […] Samples were collected at 0.5, 1, 1.5, 2, 4, 8, and 24 hours after subcutaneous administration of the first dose of VTX-2337 and plasma levels of VTX-2337 were quantified by LC-MS/MS. […] Dose normalized (DN) values for Cmax and AUC(0-∞) were calculated.
reported_endpoint: AUC(0-inf) (ng·h/mL)

* CCCN(CCC)C(=O)C1=Cc2ccc(-c3ccc(C(=O)N4CCCC4)cc3)cc2N=C(N)C1 | 19.2
